tested on: IL-1β; experiment: Inhibition of IL-1β secretion from LPS stimulated peripheral blood mononuclear cells (ELISA); type: cell-based; settings: LPS (1 μg/ml) stimulated human PBMC, 18 hours; read-out: The median inhibition concentration (IC50, nM) of IL-1β
// assign Condition met if IC50 falls strictly below 100 nM, else Condition not met (ties count as Condition not met)

[ask] Quick check: IC50 of `Nc1ccccc1Nc1ccc(C(=O)c2ccccc2Cl)cc1` under 100 nM?
[reply] Condition not met

[ask] Given the entry `Nc1ccccc1Nc1ccc(C(=O)c2ccccc2)cc1` , would its reported IC50 be below 100 nM?
[reply] Condition not met

[ask] Quick check: does `CCOC(=O)Nc1ccccc1Nc1ccc(C(=O)c2ccccc2C)c(Cl)c1` have IC50 under 100 nM?
[reply] Condition met

[ask] Does this compound meet the criterion IC50 < 100 nM? `Cc1ccccc1C(=O)c1ccc(Nc2ccccc2N)cc1Cl`
[reply] Condition met

From: patent US6313174A
